- assay_protocol: Quantitative High-Throughput drug screen in 47 multiple myeloma cell lines against the NCATS MIPE library collection: JIM1_ECACC cell viability assay (AID 1918964)
- run_conditions: JIM1 myeloma viability, CellTiter-Glo ATP luminescence, 48 h; series mostly up to 45.8 µM
Inconclusive results are not listed. Activity calls are given as the source filed them. Calls come from the whole dose curve; as a rule, active = well fitted cell-killing curve with a large enough effect; inconclusive = small, poorly fitted or top-dose-only effect, or effect the other way; inactive = no such curve, though single readings can be large or run the other way.
Labels: 1 (yes) for active, 0 (no) for inactive

| compound | label |
| --- | --- |
| CCCCCCCc1ccc(CCc2cccc(O)c2C(=O)O)cc1 | 0 (no) |
| O=C1CCc2cc(OCCCCc3nnnn3C3CCCCC3)ccc2N1 | 0 (no) |
| Clc1ccc(Nc2nnc(Cc3ccncc3)c3ccccc23)cc1 | 0 (no) |
| CC(C)(N)C(=O)N[C@H](COCc1ccccc1)C(=O)N1CCC2(CC1)CN(S(C)(=O)=O)c1ccccc12 | 0 (no) |
| Cc1cc(C=c2sc3nc4ccccc4n3c2=O)c(C)n1-c1ccccc1 | 0 (no) |
| COc1ccc(-c2oc3cc(OC)ccc3c2C(=O)c2ccc(C#N)cc2)cc1 | 1 (yes) |
| O=C(c1cc(Cc2n[nH]c(=O)c3ccccc23)ccc1F)N1CCN(C(=O)C2CC2)CC1 | 0 (no) |
| CCOC(=O)C1=C[C@]2(CC)CCCN3CCc4c(n1c1ccccc41)[C@@H]32 | 1 (yes) |
| CC(C)C[C@H](NC(=O)[C@@H](O)[C@H](N)Cc1ccccc1)C(=O)O | 0 (no) |
| OC(CCN1CCCCC1)(c1ccccc1)C1CC2C=CC1C2 (centres undefined) | 0 (no) |
| Cc1n[nH]c(C)c1Cc1sc2c(c1C(=O)N1C[C@H](O)CO1)c(=O)n(C)c(=O)n2CC(C)C | 0 (no) |
| CC(c1cc2ccccc2s1)N(O)C(N)=O (centres undefined) | 0 (no) |
| O=c1[nH]c(-c2ccc(C(F)(F)F)cc2)nc2c1CSCC2 | 0 (no) |
| Cc1cc2c(F)c(Oc3ncnn4cc(OC[C@@H](C)O)c(C)c34)ccc2[nH]1 | 0 (no) |
| OCCn1cc(-c2cnc3nnn(Cc4ccc5ncccc5c4)c3n2)cn1 | 0 (no) |
| CNC(=O)c1ccc(C)c(-n2c(C)cc(OCc3ccc(F)cc3F)c(Br)c2=O)c1 | 1 (yes) |
| CC(=O)NC(C)c1ccc(Oc2ccc(OC(C)C)cc2)cc1 (centres undefined) | 0 (no) |
| CC(C[N+](C)(C)C)OC(N)=O (centres undefined) | 0 (no) |
| NC[C@H](O)c1ccc(O)c(O)c1 | 0 (no) |

* * *

- assay_protocol: Quantitative High-Throughput drug screen in 47 multiple myeloma cell lines against the NCATS MIPE library collection: XG6_PLB cell viability assay (AID 1919865); note: nearly all actives have a fitted effect of over 40% in size
- run_conditions: XG6 myeloma viability, CellTiter-Glo ATP luminescence, 48 h; series mostly up to 45.8 µM
Records with an inconclusive call do not appear. The source made the active and inactive calls. The call rests on the fitted dose curve; in most records, active means well fitted cell-killing curve with a large enough effect; inconclusive means small, poorly fitted or top-dose-only effect, or effect the other way; inactive means no such curve, though single readings can be large or run the other way.
Labels: class 1 = active, class 0 = inactive

| compound | label |
| --- | --- |
| NC(=O)c1ccc(-c2nc(-c3ccc4c(c3)OCCO4)c(-c3ccccn3)[nH]2)cc1 | class 1 |
| C[C@]12CC[C@H](O)CC1=CC[C@@H]1[C@H]2CC[C@]2(C)C(c3cccnc3)=CC[C@H]12 | class 1 |
| CNC(=O)c1ccc(C)c(-n2c(C)cc(OCc3ccc(F)cc3F)c(Br)c2=O)c1 | class 1 |
| CCCc1nc2c(C)cc(-c3nc4ccccc4n3C)cc2n1Cc1ccc(-c2ccccc2C(=O)O)cc1 | class 1 |
| CC(=O)Oc1ccccc1C(=O)O | class 1 |
| Nc1nc2ccc(OC(F)(F)F)cc2s1 | class 0 |
| N[C@@H]1CONC1=O | class 0 |
| Nc1ccc(S(=O)(=O)Nc2ccnn2-c2ccccc2)cc1 | class 0 |
| COc1ccc(CCN2CCN(CCCc3ccccc3)CC2)cc1OC | class 1 |
| CCC(C)(C)C(=O)O[C@H]1C[C@@H](C)C=C2C=C[C@H](C)[C@H](CC[C@@H]3C[C@@H](O)CC(=O)O3)[C@H]21 | class 1 |
| CCCS(=O)(=O)Nc1ccc(F)c(C(=O)c2c[nH]c3ncc(Cl)cc23)c1F | class 1 |
| COc1cccc2cc(-c3nc(C4CCC(C(=O)O)CC4)n4ncnc(N)c34)[nH]c12 (configuration not stated) | class 1 |
| O=C1CCC(N2C(=O)c3ccccc3C2=O)C(=O)N1 (configuration not stated) | class 0 |
| Cc1cc([C@@H](C)Nc2ccccc2C(=O)O)c2nc(N3CCOCC3)cc(=O)n2c1 | class 1 |
| Oc1cccc(-c2nc(N3CCOCC3)c3oc4ncccc4c3n2)c1 | class 1 |
| Nc1nc2c(ncn2COCCO)c(=O)[nH]1 | class 0 |
| Cc1ccccc1C(C(=O)NC1CCCC1)N(C(=O)Cn1cnc2ccccc21)c1cccc(F)c1 (configuration not stated) | class 0 |
| COCC(=O)NCC=Cc1ccc2ncnc(Nc3ccc(Oc4ccc(C)nc4)c(C)c3)c2c1 | class 1 |
| CCC(C)N(C)C(=O)c1cc2ccccc2c(-c2ccccc2Cl)n1 (configuration not stated) | class 1 |
| CCOC(=O)C1=C[C@]2(CC)CCCN3CCc4c(n1c1ccccc41)[C@@H]32 | class 1 |
| NC(N)=NC(=O)c1nc(Cl)c(N)nc1N | class 1 |
| COc1ccc(C2=N[C@H](c3ccc(Cl)cc3)[C@H](c3ccc(Cl)cc3)N2C(=O)N2CCNC(=O)C2)c(OC(C)C)c1 | class 1 |
